- assayed.system: 14-3-3ζ (Homo sapiens)
- Construct: Both full-length 14-3-3ζ and 14-3-3ζΔC12 were expressed as N-terminally His-tagged protein; His tag (TEV-cleavable) (N, cleaved yes); made in house; host or cells: Escherichia coli BL21 (DE3) pLysS
- Sequence (P63104 whole entry): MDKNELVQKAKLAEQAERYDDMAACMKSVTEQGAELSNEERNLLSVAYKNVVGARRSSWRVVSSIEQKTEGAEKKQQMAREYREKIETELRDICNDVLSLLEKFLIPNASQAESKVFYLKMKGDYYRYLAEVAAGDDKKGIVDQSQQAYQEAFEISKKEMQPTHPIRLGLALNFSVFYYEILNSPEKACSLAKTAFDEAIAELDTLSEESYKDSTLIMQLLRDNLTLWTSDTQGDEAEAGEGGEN
- protocol.summary: ITC of Cby peptides titrated into 14-3-3ζ
- Assay type: binding
- test.context: 298.15 K, pH 6.8, Table 1 set of duplicate experiments
Square brackets hold non-standard residues; d marks the D form. Peptide text beside a SMILES is read from it. pS = N[C@@H](COP(=O)(O)O)C(=O)O
The molecules listed here are annotated with their ΔG.
Give the value, in units of kcal/mol, as a plain number.

molecule	ΔG / kcal/mol
CC(C)C[C@H](NC(=O)[C@H](CC(N)=O)NC(=O)[C@H](CO)NC(=O)[C@H](CC(C)C)NC(=O)[C@H](COP(=O)(O)O)NC(=O)[C@H](C)NC(=O)[C@H](CO)NC(=O)[C@H](CCCCN)NC(=O)[C@H](CCCNC(=N)N)NC(=O)[C@@H]1CCCN1C(=O)[C@@H]1CCCN1C(=O)[C@@H](NC(=O)[C@@H](N)CCCCN)[C@@H](C)O)C(=O)O [Cby 13-mer] (H-KTPPRKSA[pS]LSNL-OH)	-6.60
CC(=O)N[C@@H](CCCNC(=N)N)C(=O)N[C@@H](CCCCN)C(=O)N[C@@H](CO)C(=O)N[C@@H](C)C(=O)N[C@@H](COP(=O)(O)O)C(=O)N[C@@H](CC(C)C)C(=O)N[C@@H](CO)C(N)=O [Cby 7-mer] (Ac-RKSA[pS]LS-NH2)	-5.95

Request the reported ΔG associated with CC(C)C[C@H](NC(=O)[C@H](CC(N)=O)NC(=O)[C@@H]1CCCN1C(=O)[C@H](CC(C)C)NC(=O)[C@H](COP(=O)(O)O)NC(=O)[C@H](C)NC(=O)[C@H](CO)NC(=O)[C@H](CCCCN)NC(=O)[C@H](CCCNC(=N)N)NC(=O)[C@@H]1CCCN1C(=O)[C@@H]1CCCN1C(=O)[C@@H](NC(=O)[C@@H](N)CCCCN)[C@@H](C)O)C(=O)O [Cby 13-mer S22P] (H-KTPPRKSA[pS]LPNL-OH)
-8.13
